Values compiled from PubChem BioAssay (NCI).

- Test system: MALME-3M melanoma
- Experimental details: NCI-60 one-dose screen, 48 h
- Condition details: 10 µM unless noted
About 83,000 compounds went through this panel and 20% of them were active in at least one assay; those are over-represented in the sample as a whole. Active and inactive are the calls of the source. Rule for the calls: active = growth percent below 10; inactive = the rest.
Classes used: active, inactive

Compound: N#C/C(=C\c1ccc(-c2ccc(Cl)cc2)o1)c1nc(-c2ccco2)cs1
Class: inactive
//
Compound: COc1cc2c(cc1OC)C(=O)/C(=C/c1cc(-c3ccc4c(c3)OCO4)n[nH]1)C2
Class: inactive
//
Compound: CC(=O)O[C@@H]1CCN2C(=O)N(C)c3ccccc3[C@@H]2C1
Class: inactive
//
Compound: Brc1ccc2c(c1)c(-c1nc(-c3c[nH]c4ncccc34)cs1)cn2CCCN1CCCCC1
Class: active
//
Compound: Cc1cc(C)n(Cc2cc(C(C)(C)C)cc(C(C)(C)C)c2)c(=O)c1C#N
Class: inactive
//
Compound: NC(=O)[C@@H]1CC2CCC1C2 (some centres undefined)
Class: inactive
//
Compound: C[C@H]1[C@H]2C3=CC[C@@H]4[C@@]5(C)C/C(=C/c6ccco6)C(=O)C(C)(C)[C@@H]5CC[C@@]4(C)[C@]3(C)CC[C@@]2(C(=O)N2CCOCC2)CC[C@@H]1C
Class: inactive
//
Compound: O=C1C=C(C(O)c2ccc(O)cc2)C(=O)c2ccccc21 (centres undefined)
Class: inactive
//
Compound: COc1ccc(-c2cc(/C=C/C(=O)c3ccc(N)cc3)[nH]n2)cc1
Class: inactive

====

- Test system: TK-10 renal
- Experimental details: NCI-60 one-dose screen, 48 h (100 = growth as untreated, 0 = no growth, -100 = all killed)
- Condition details: 10 µM unless noted
The panel holds about 83,000 compounds, 20% with a hit somewhere; the sample as a whole holds those more often.
Here, each record is paired with measured growth data.

Compound: O=C1/C(=C\c2ccc(Br)o2)SC(=S)N1CCc1ccc(O)cc1
Target system: TK-10 renal
Unit symbol: %
growth: 92.8

Compound: O=C(/C(=C(\C(=O)c1ccccc1)c1ccccc1)c1ccccc1)c1ccccc1
Target system: TK-10 renal
Unit symbol: %
growth: 86.8

Compound: CCN1CCN(C(=O)[C@]23CCC(C)(C)C[C@@H]2C2=CC[C@@H]4[C@@]5(C)C/C(=C/c6ccncc6)C(=O)C(C)(C)[C@@H]5CC[C@@]4(C)[C@]2(C)CC3)CC1
Target system: TK-10 renal
Unit symbol: %
growth: 32.3

Compound: O=C1CNCCN1
Target system: TK-10 renal
Unit symbol: %
growth: 100

Compound: COC(=O)[C@]12CC[C@@H](C)[C@H](C)[C@@H]1C1=CC[C@@H]3[C@@]4(C)CC(=O)[C@H](OC(=O)c5ccco5)[C@@]5(C)COC(=C45)C[C@@]3(C)[C@]1(C)CC2
Target system: TK-10 renal
Unit symbol: %
growth: 38.5

Compound: CC(=O)OC(C)COc1ccc(-c2ccccc2)cc1 (stereo not given)
Target system: TK-10 renal
Unit symbol: %
growth: 80.7

Compound: C=C1C(=O)O[C@H]2[C@H]1CC/C(COC(=O)NCc1cc3ccccc3[nH]1)=C\CC[C@@]1(C)O[C@@H]21
Target system: TK-10 renal
Unit symbol: %
growth: -54.8

Compound: Cc1ccc(-c2ccc(/C=C(\C#N)c3nc(-c4ccco4)cs3)o2)cc1
Target system: TK-10 renal
Unit symbol: %
growth: 69.9

Compound: Cc1cc(N(CCCNc2ccnc3cc(Cl)ccc23)Cc2ccco2)nc(N2CCOCC2)n1
Target system: TK-10 renal
Unit symbol: %
growth: 110

Compound: COc1cc2[nH]c(C(=O)c3cc(OC)c(OC)c(OC)c3)c(N)c2cc1C#CCO
Target system: TK-10 renal
Unit symbol: %
growth: 66.2

Compound: CC(=O)O[C@@H]1CCN2C(=O)N(C)c3ccccc3[C@@H]2C1
Target system: TK-10 renal
Unit symbol: %
growth: 99.6

Compound: CC(c1ccccc1)N1C(=O)C(C2SC(=S)N(C(C)c3ccccc3)C2=O)SC1=S (stereo not given)
Target system: TK-10 renal
Unit symbol: %
growth: 106

Compound: COc1ccc2c(c1)C/C(=C\c1cc(-c3ccc4c(c3)OCO4)n[nH]1)C2=O
Target system: TK-10 renal
Unit symbol: %
growth: 162

Compound: O=C(/C=C\c1ccc2c(c1)OCO2)/C=C/c1ccc2c(c1)OCO2
Target system: TK-10 renal
Unit symbol: %
growth: 96.1

Compound: NC1(N)C=CC2=C(C=C1)C1(N)C3=C(C=CC(N)(N)C=C3)N2C2(N)C3=C(C=CC(N)(N)C=C3)N1C1=C2C=CC(N)(N)C=C1
Target system: TK-10 renal
Unit symbol: %
growth: 119

Compound: O=C(CI)Nc1ccc(O)c2ccccc12
Target system: TK-10 renal
Unit symbol: %
growth: -34

Compound: Cn1cc(-c2csc(-c3c[nH]c4ccccc34)n2)c2cccnc21
Target system: TK-10 renal
Unit symbol: %
growth: 48

Compound: Cn1cc(-c2nc(-c3c[nH]c4ncccc34)cs2)c2cc(Cl)ccc21
Target system: TK-10 renal
Unit symbol: %
growth: 43.1

Compound: NC1=C(C/C(N)=N\O)C(c2ccccc2Cl)c2c(ccc3ccccc23)O1 (stereo not given)
Target system: TK-10 renal
Unit symbol: %
growth: 180

Compound: O=C(NO)c1ccc(Cn2c(=O)n(CCc3ccc(O)cc3)c(=O)c3ccccc32)cc1
Target system: TK-10 renal
Unit symbol: %
growth: 84.7

Compound: CC(=O)Cc1nsc(NC(=O)c2ccoc2COc2ccccc2)n1
Target system: TK-10 renal
Unit symbol: %
growth: 107

Compound: Cc1cccc(C)c1NC(=O)CSC(=S)N1CCN(CCOCCO)CC1
Target system: TK-10 renal
Unit symbol: %
growth: 85.8

Compound: COc1cccc(NC(=O)c2sc3nc4c(cc3c2N)C(=O)CCC4)c1
Target system: TK-10 renal
Unit symbol: %
growth: 84.2

Compound: Cn1cc(-c2csc(-c3cn(CCN)c4ccccc34)n2)c2cccnc21
Target system: TK-10 renal
Unit symbol: %
growth: 92.9

Compound: C/C(=N\Nc1cc(C)c2ccccc2n1)c1ccccn1
Target system: TK-10 renal
Unit symbol: %
growth: -12.9

Compound: Brc1ccc(Cn2nnnc2-c2ccn(-c3ccccc3)n2)cc1
Target system: TK-10 renal
Unit symbol: %
growth: 77.6

Compound: Cc1nn(-c2ccc(Br)cc2)c2nc3[nH]c(=O)[nH]c(=O)c3nc12
Target system: TK-10 renal
Unit symbol: %
growth: 144

Compound: Fc1ccc2[nH]cc(-c3nc(-c4c[nH]c5ncccc45)cs3)c2c1
Target system: TK-10 renal
Unit symbol: %
growth: 52.2

Compound: CN1CCN(c2nc(-c3cccc4ccccc34)nc3sc4c(c23)CCCCCC4)CC1
Target system: TK-10 renal
Unit symbol: %
growth: 113

Compound: O=C1C=C(C(O)c2ccc(O)cc2)C(=O)c2ccccc21 (stereo not given)
Target system: TK-10 renal
Unit symbol: %
growth: 103

Compound: COc1ccc(-c2c(-c3nc4ccc(N5CCOCC5)cc4[nH]3)[nH]c(C)c2C(C)=O)cc1
Target system: TK-10 renal
Unit symbol: %
growth: -4.3

Compound: COc1ccc(C2NC(=O)Nc3ccccc32)c(OC)c1 (stereo not given)
Target system: TK-10 renal
Unit symbol: %
growth: 95.5

Compound: COC1=C(Br)C(=O)C(OC)=C(Br)C1=O
Target system: TK-10 renal
Unit symbol: %
growth: 95.7

Compound: CN1CCN(CCOc2ccc(-c3cnc4c(-c5ccccc5F)cnn4c3)cc2)CC1
Target system: TK-10 renal
Unit symbol: %
growth: 71

Compound: CN(C)c1ccc(C(=O)c2ccc(N(C)C)c(N)c2)cc1N
Target system: TK-10 renal
Unit symbol: %
growth: 67.3

Compound: COc1cc2ncnc(Nc3ccc(Oc4ccnc(C)c4)c(C)c3)c2cc1NC(=O)CC1CCSS1 (stereo not given)
Target system: TK-10 renal
Unit symbol: %
growth: -68.6

Compound: CC1(n2nnnc2N2CCCN(c3ncccc3N)CC2)CCC1
Target system: TK-10 renal
Unit symbol: %
growth: 99

Compound: C/C(=N\NC(=O)C(C)SC(C)C(=O)N/N=C(\C)c1cccnc1)c1cccnc1 (stereo not given)
Target system: TK-10 renal
Unit symbol: %
growth: 106

Compound: COC(=O)CNc1nc(N(C)O)nc(N(C)O)n1
Target system: TK-10 renal
Unit symbol: %
growth: 49.6

Compound: CC(C)c1cc(C(=O)O)c(O)c(C(C)C)c1.CC(C)c1cc(C(=O)O)c(O)c(C(C)C)c1.[Mn]
Target system: TK-10 renal
Unit symbol: %
growth: 106

====

- Test system: SNB-75 CNS
- Experimental details: NCI-60 one-dose screen, 48 h
- Condition details: 10 µM unless noted
The panel holds about 83,000 compounds, 20% with a hit somewhere; the sample as a whole holds those more often. Activity calls are given as the source filed them. How the source made its calls: active means growth percent below 10; inactive means the rest.
Outcomes: active, inactive

Molecule: COc1ccc2nc(-c3c(-c4ccccc4)nc4ncccn34)[nH]c2c1
Class: inactive
//
Molecule: CCCCCCCN(CCCCCCC)C(=N)c1ccnc2ccccc12
Class: active
//
Molecule: COc1ccc(-c2n[nH]nc2-c2cc3ccccc3s2)cc1O
Class: inactive
//
Molecule: C=C(C)[C@@H]1CC[C@]2(C)[C@H](CC=C3[C@@H]4CC(C)(C)CC[C@]4(C=O)CC[C@]32C)[C@@]1(C)CCCN
Class: inactive
//
Molecule: N#CCCCCCn1c2ccccc2c2c3c(c4c5ccccc5n(CCCCCC#N)c4c21)C(=O)N(O)C3=O
Class: inactive
//
Molecule: N#C/C(=C\c1ccc(-c2ccc(Br)cc2)o1)c1nc(-c2cccs2)cs1
Class: inactive
//
Molecule: NCCNc1nc(-c2ccccc2)nc2nc(-c3ccccc3)oc12
Class: inactive
//
Molecule: CCCC(=O)N1CCCCC1CC (stereo unspecified)
Class: inactive
//
Molecule: N=C(N)c1ccc(S(N)(=O)=O)cc1
Class: inactive
//
Molecule: Cc1ccc(NC2CC(=O)N(c3c(C)cc(C)cc3C)C2=O)c(C)c1 (stereo unspecified)
Class: inactive
//
Molecule: N#Cc1c(-c2ccco2)nc2c(c(-c3ccccc3)nn2-c2ccccc2)c1-c1ccc(O)cc1
Class: inactive
